- Test system: smooth muscle cells
- Procedure text: Inhibition of the proliferation of smooth muscle cells (3H-thymidine incorporation)
- Format: cell-based, rats
- Experimental parameters: rat aorta smooth muscle cells; inhibition of thymidine incorporation produced by 10% FCS; Table B
Please go through the items and note down their pIC50.
In plain terms, pIC50 is the concentration in mol/L turned into minus its base-10 logarithm.

Briefly, pIC50 measured for CCCCc1nc(Cl)c(CO)n1Cc1ccc(C(C(=O)N2CCC[C@H]2C(=O)N[C@H](CO)c2ccccc2)C2CCCC2)cc1 (some centres unmarked) [Example 9] : 6.07

Briefly, pIC50 measured for CCCCc1nc(Cl)c(CO)n1Cc1ccc(C(C(=O)N2CCC[C@H]2C(=O)OC(C)(C)C)C2CCCC2)cc1 (single isomer, unassigned) [Example 14] : 6.35
